- TARGET OR TEST SYSTEM: human TLR9 (Homo sapiens)
- Sequence (Q9NR96 26-1032): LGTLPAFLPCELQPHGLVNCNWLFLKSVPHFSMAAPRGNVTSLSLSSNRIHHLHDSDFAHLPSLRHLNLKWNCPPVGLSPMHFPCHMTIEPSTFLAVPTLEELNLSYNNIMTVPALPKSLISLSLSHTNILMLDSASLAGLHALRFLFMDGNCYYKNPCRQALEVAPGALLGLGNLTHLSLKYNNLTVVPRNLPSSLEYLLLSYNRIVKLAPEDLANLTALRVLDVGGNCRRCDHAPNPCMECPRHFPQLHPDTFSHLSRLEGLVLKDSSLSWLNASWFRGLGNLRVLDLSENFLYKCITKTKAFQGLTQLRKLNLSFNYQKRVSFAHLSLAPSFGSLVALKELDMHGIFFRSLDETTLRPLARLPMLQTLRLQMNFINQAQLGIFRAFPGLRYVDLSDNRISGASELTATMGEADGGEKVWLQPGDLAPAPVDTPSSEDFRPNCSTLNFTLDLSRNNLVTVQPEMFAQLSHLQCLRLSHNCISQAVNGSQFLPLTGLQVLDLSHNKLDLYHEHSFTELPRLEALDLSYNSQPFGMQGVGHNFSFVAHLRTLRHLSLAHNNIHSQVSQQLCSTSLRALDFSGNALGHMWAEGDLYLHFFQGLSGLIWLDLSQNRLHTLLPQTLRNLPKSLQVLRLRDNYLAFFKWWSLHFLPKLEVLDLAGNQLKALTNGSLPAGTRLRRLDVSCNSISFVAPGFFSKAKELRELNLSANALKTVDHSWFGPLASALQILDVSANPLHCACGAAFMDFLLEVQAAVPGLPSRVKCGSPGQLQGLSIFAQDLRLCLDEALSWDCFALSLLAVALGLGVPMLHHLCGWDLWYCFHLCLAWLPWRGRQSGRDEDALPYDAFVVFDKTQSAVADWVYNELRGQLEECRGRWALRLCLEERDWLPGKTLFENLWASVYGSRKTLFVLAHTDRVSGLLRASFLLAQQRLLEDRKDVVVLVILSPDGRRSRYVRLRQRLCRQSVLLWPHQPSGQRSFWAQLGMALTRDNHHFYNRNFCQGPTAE
- ASSAY TEXT: TLR9 inhibition reporter assay (HEK-Blue cells, SEAP reporter, ODN2006 stimulation)
- STATED CONDITIONS: HEK-Blue cells overexpressing human TLR9, SEAP reporter, ODN2006 5 nM
pIC50: −log10 of the molar value.
OBSERVED PROPERTY: pIC50

Example compounds with recorded pIC50:
- CNC1CCC(c2ccc3[nH]c(-c4cn5cnnc5c(C)c4C)c(C(C)C)c3c2)CC1 (centres unmarked) [Example 530]: 6.16
- Cc1c(-c2[nH]c3ccc(C4CC(NCCS(C)(=O)=O)C4)cc3c2C(C)C)cn2ncnc2c1C (centres unmarked): 5.30
- Cc1c(-c2[nH]c3ccc(C4CN(CC5CCOC5)C4)cc3c2C(C)C)cn(C)c(=O)c1Cl (centres unmarked): 5.00

[1] COc1cc(-c2[nH]c3ccc(C4CCCNC4)cc3c2C(C)C)cn2ncnc12 (single isomer, unassigned) [Example 182]
[2] COc1cc(-c2[nH]c3ccc(C4CN(C(=O)CN(C)C)C(C)(C)CO4)cc3c2C(C)C)cn2ncnc12 (centres unmarked)
[3] Cc1cc(-c2[nH]c3ccc(C4CN(CC(C)(C)O)C(C)(C)CO4)cc3c2C(C)C)cn2ncnc12 (centres unmarked)
[4] COc1cc(-c2[nH]c3ccc(C4CCC(N5CCC[C@H]5C(N)=O)CC4)cc3c2C(C)C)cn2ncnc12 (some centres unmarked) [Example 29]
Challenge: Let's sort these by pIC50, smallest first. Go ahead? Form entry: labels listed in requested order.
Response given: 3, 2, 1, 4

[1] COc1cc(-c2[nH]c3ccc(C4CCCN(CC(=O)N(C)C)C4)cc3c2C(C)C)cn2ncnc12 (centres unmarked) [Example 222]
[2] Cc1c(-c2[nH]c3ccc(C4CC(N(C)C(=O)CN(C)C)C4)cc3c2C(C)C)cn2ncnc2c1C (centres unmarked) [Example 584]
Challenge: Would you mind telling me which has the lower recorded pIC50 between 1 and 2 ? Give the chosen item's label as your response.
Response given: 2
(2: 5.25, 1: 5.51)

[a] COc1cc(-c2[nH]c3ccc(C4CCC(N5CCC[C@H]5C(N)=O)CC4)cc3c2C(C)C)cn2ncnc12 (some centres unmarked) [Example 31]
[b] Cc1cc(-c2[nH]c3ccc(C4CCC(N5CCOCC5)CC4)cc3c2C(C)C)cc(C)n1 (centres unmarked) [Example 497]
Challenge: Returns: the argument ( a or b ) having the larger pIC50. Give the chosen item's label as your response.
Response given: b

[a] COc1cc(-c2[nH]c3ccc(C4CCCN(CC(N)=O)C4)cc3c2C(C)C)cn2ncnc12 (centres unmarked) [Example 229]
[b] CCc1c(-c2ccnc(C)c2)[nH]c2ccc(CNC(=O)OCC3CCNCC3)cc12
[c] CNC(=O)CNC1CCC(c2ccc3[nH]c(-c4cc(C)nc(C)c4)c(C(C)C)c3c2)CC1 (single isomer, unassigned) [Example 180]
Challenge: Let's sort these by pIC50, smallest first. Go ahead? Form entry: labels listed in requested order.
Response given: a, b, c
(a: 5.20, b: 6.32, c: 6.56)

[A] Cc1c(-c2[nH]c3ccc(C4CCC(NC(=O)CN(C)C)CC4)cc3c2C(C)C)cn(C)c(=O)c1C (centres unmarked) [Example 471]
[B] Cc1c(-c2[nH]c3ccc(C4CNC(C)(C)CO4)cc3c2C(C)C)cn2ncnc2c1C (centres unmarked) [Example 371]
[C] CCc1c(-c2ccnc(C)c2)[nH]c2ccc(CNC(=O)C3CC4(CCNCC4)C3)cc12
Challenge: Let's sort these by pIC50, smallest first. Go ahead? Form entry: labels listed in requested order.
Response given: A, B, C

[1] Cc1c(-c2[nH]c3ccc(C4CN(CCS(C)(=O)=O)C4)cc3c2C(C)C)cn(C)c(=O)c1C
[2] Cc1cc(-c2[nH]c3ccc(CC4CCCN4Cc4ccccc4)cc3c2C(C)C)cn2ncnc12 (single isomer, unassigned) [Example 397]
Challenge: Returns: the argument ( 1 or 2 ) having the larger pIC50. Give the chosen item's label as your response.
Response given: 2

[A] Cc1c(-c2[nH]c3ccc(C4CCC(N5CCOCC5)CC4)cc3c2C(C)C)cn2ncnc2c1C (single isomer, unassigned) [Example 93]
[B] COc1cc(-c2[nH]c3ccc(CCN4CCOCC4)cc3c2C(C)C)cn2ncnc12
Challenge: Returns: the argument ( A or B ) having the larger pIC50. Give the chosen item's label as your response.
Response given: A
(A: 5.42, B: 5.05)

[I] Cc1cc(-c2[nH]c3ccc(C4CCC(N(C)C(=O)CN(C)C)CC4)cc3c2C(C)C)cn2ncnc12 (centres unmarked) [Example 148]
[II] Cc1cc(-c2[nH]c3ccc(C4CCCN(C(=O)[C@@H]5CCN5)C4)cc3c2C(C)C)cc(C)n1 (some centres unmarked) [Example 218]
Challenge: Returns: the argument ( I or II ) having the larger pIC50. Give the chosen item's label as your response.
Response given: II
(II: 6.16, I: 5.61)

[A] COc1cc(-c2[nH]c3ccc(C4CNCCO4)cc3c2C(C)C)cn2ncnc12 (centres unmarked) [Example 284]
[B] Cc1cc(-c2[nH]c3ccc(C4CCC(N(C)C)CC4)cc3c2C(C)C)cc(C)n1 (single isomer, unassigned) [Example 53]
Challenge: Would you mind telling me which has the lower recorded pIC50 between A and B ? Give the chosen item's label as your response.
Response given: A
(A: 5.74, B: 6.22)
